target: FGFR2 (Homo sapiens); construct: made in house; host or cells: E. coli derived from BL21, infected with T7 phage; assay: Kinase binding assay (kinase-tagged T7 phage, affinity beads, qPCR readout), FGFR2; details: FGFR binding data
Sequence (P21802 22-821): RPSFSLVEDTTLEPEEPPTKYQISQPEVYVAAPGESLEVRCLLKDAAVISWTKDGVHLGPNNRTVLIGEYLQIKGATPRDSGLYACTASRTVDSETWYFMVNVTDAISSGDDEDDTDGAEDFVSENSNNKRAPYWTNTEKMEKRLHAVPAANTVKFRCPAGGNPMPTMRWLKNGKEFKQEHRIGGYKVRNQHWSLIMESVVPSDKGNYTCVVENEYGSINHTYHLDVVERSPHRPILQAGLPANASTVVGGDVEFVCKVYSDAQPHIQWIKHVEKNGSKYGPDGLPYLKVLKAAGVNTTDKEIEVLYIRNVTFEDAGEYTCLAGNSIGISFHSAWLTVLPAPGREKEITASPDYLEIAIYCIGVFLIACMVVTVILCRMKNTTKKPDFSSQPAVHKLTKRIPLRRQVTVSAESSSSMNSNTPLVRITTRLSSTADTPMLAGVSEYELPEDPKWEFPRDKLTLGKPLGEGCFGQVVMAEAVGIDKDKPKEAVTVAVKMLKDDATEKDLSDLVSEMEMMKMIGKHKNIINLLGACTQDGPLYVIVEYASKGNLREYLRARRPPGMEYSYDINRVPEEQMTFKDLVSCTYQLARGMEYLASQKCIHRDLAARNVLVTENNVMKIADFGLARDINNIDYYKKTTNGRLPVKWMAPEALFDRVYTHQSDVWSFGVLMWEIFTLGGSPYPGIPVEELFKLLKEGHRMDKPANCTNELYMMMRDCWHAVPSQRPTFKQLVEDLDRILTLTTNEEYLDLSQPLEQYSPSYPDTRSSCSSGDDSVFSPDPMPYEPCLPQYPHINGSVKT
For each record, write down the corresponding Kd.

Worked examples follow.
• C=CC(=O)Nc1ccc2c(c1)c1ccccc1n2-c1nc(Nc2cnn(C)c2)ncc1F [Example 228] = 0.1 to 100 nM
• C=CC(=O)Nc1ccc2c(c1)c(C)cn2-c1nc(Nc2ccc(CN3CCOCC3)cc2)ncc1Cl [Example 75] = 0.1 to 100 nM
• C=CC(=O)Nc1ccc2c(c1)c(C)cn2-c1nc(Nc2ccc(N3CCOCC3)c(F)c2)ncc1Cl [Example 22] = 0.1 to 100 nM
• C=CC(=O)Nc1ccc2c(c1)c(C)cn2-c1cc(Nc2cn(C)nc2C)ncc1C [Example 224] = 250 to 1000 nM
• C=CC(=O)Nc1ccc2c(-c3nc(Nc4cnn(CCO)c4)ncc3Cl)cn(C)c2c1 [Example 127] = 0.1 to 100 nM
• C=C(Cl)C(=O)Nc1cnc2c(c1)c(C)cn2-c1nc(Nc2ccn(C)n2)ncc1C [Example 116] = 0.1 to 100 nM

Dear reader, for each entry below, please note its Kd.
1. C=CC(=O)Nc1ccc2c(-c3ccnc(Nc4cnn(C)c4)n3)cn(C)c2c1 [Example 201]
2. C=CC(=O)Nc1ccc2c(c1)c(C)cn2-c1nc(Nc2cnn(CCOCC)c2)ncc1F [Example 193]
3. C=CC(=O)Nc1cnc2c(c1)c(C)cn2-c1nc(Nc2ccnn2C)ncc1C [Example 85]
4. C#CC(=O)Nc1cnc2c(c1)c(C)cn2-c1nc(Nc2ccnn2C)ncc1C [Example 132]

Result string:
["0.1 to 100 nM", "0.1 to 100 nM", "0.1 to 100 nM", "0.1 to 100 nM"]

Please supply Kd for each of the following items, keeping them in order.
1. C=CC(=O)Nc1ccc2c(-c3ccnc(Nc4cnn(C(C)C)c4)n3)cn(C)c2c1 [Example 96]
2. Cc1cn(-c2nc(Nc3cnn(CCO)c3)ncc2F)c2ccc(NC(=O)/C=C/CN(C)C)cc12 [Example 144]
3. C=C(F)C(=O)Nc1ccc2c(c1)c(C)cn2-c1nc(Nc2ccnn2C)ncc1C [Example 110]
4. C=CC(=O)Nc1ccc2c(ccn2-c2nc(Nc3ccc(N4CCOCC4)c(F)c3)ncc2Cl)c1 [Example 16]
5. C=CC(=O)Nc1ccc2c(c1)c(C)cn2-c1nc(Nc2ccccc2OCC)ncc1C#N [Example 39]
6. C=CC(=O)Nc1ccc2c(c1)c(C)cn2-c1nc(Nc2cn(C(C)(C)C#N)nc2C)ncc1F [Example 159]
7. C=CC(=O)Nc1cnc2c(c1)c(C)cn2-c1nc(Nc2cc(C)n(C(=O)OC(C)(C)C)n2)ncc1C [Example 124]

Result string:
["0.1 to 100 nM", "0.1 to 100 nM", "> 1000 nM", "250 to 1000 nM", "> 1000 nM", "0.1 to 100 nM", "100 to 250 nM"]

// input: 2 molecules below; output: Kd for each
1. C=CC(=O)Nc1ccc2c(c1)c(C)cn2-c1nc(Nc2cnsc2)ncc1F [Example 148]
2. C=CC(=O)Nc1ccc2c(c1)c(C)cn2-c1cc(Nc2cnn(C)c2)nnc1C [Example 221]

Result string:
["0.1 to 100 nM", "> 1000 nM"]

Report Kd for each item below.
1. C=CC(=O)Nc1ccc2c(c1)c(C)cn2-c1nc(Nc2ccc(N3CCOCC3)cc2)ncc1C [Example 44]
2. C=CC(=O)Nc1ccc2c(c1)c(C)cn2-c1nc(Nc2ccn(C)n2)ncc1C [Example 81]
3. C=CC(=O)Nc1ccc2c(c1)c(C)cn2-c1ccnc(Nc2cnn(C)c2)n1 [Example 79]

Result string:
["0.1 to 100 nM", "0.1 to 100 nM", "0.1 to 100 nM"]

Hey, can you go through the list below and give me Kd for every item?
1. C=CC(=O)Nc1ccc2c(c1)c(C)cn2-c1nc(Nc2cn(C)nc2C)nnc1Cl [Example 225]
2. C=CC(=O)Nc1ccc2c(c1)c(C)cn2-c1ccnc(Nc2ccnn2C)n1 [Example 82]

Result string:
1: > 1000 nM; 2: 0.1 to 100 nM

Hey, can you go through the list below and give me Kd for every item?
1. CC#CC(=O)Nc1ccc2c(c1)c(C)cn2-c1nc(Nc2ccnn2C)ncc1F [Example 139]
2. C=CC(=O)Nc1ccc2c(c1)c(C)cn2-c1nc(Nc2cnn(CCOC(C)C)c2)ncc1F [Example 203]

Result string:
1. > 1000 nM
2. 0.1 to 100 nM

For each of the items listed, what is its Kd?
1. C=CC(=O)Nc1ccc2c(c1)c(C)cn2-c1nc(Nc2cc(C)n(C)n2)ncc1C [Example 102]
2. C=CC(=O)Nc1ccc2c(c1)c(C)cn2-c1nc(Nc2cnn(C[C@@H](C)O)c2C)ncc1F [Example 216]
3. Cc1cn(-c2nc(Nc3cnn(C[C@H](C)O)c3)ncc2F)c2ncc(NC(=O)/C=C/CN(C)C)cc12 [Example 196]
4. C=CC(=O)Nc1ccc2c(-c3nc(Nc4cnn(C)c4)ncc3Cl)cn(C)c2c1 [Example 30]

Result string:
1: 0.1 to 100 nM; 2: 0.1 to 100 nM; 3: 0.1 to 100 nM; 4: 0.1 to 100 nM

Please supply Kd for each of the following items, keeping them in order.
1. C=CC(=O)Nc1ccc2c(c1)c(C)cn2-c1nc(Nc2c(C)cccc2OCC)ncc1Cl [Example 29]
2. C=CC(=O)Nc1ccc2c(c1)c(C)cn2-c1nc(Nc2ccn(C3COC3)n2)ncc1C [Example 120]
3. C=CC(=O)Nc1ccc2c(c1)c(C)cn2-c1nc(Nc2ccc(OC)c(OC)c2)ncc1Cl [Example 23]

Result string:
1. > 1000 nM
2. 0.1 to 100 nM
3. 0.1 to 100 nM
